Reported composite z-score values for the following molecules.
assay: small-molecule microarray binders of probe aCHRDL2, primary screen, biochemical, biotinylated probe, 635/667 nm fluorescence (AID 1100); conditions: higher = more signal
Answer with a number only.

The cases that follow already have their composite z-score on record.
• COC(=O)[C@@]1(Cc2ccc(OC)cc2)[C@H]2c3cc(C(=O)N4CCCC4)n(Cc4cc(F)c(F)c(F)c4)c3C[C@H]2CN1C(=O)c1ccccc1 = 1.59
• COc1ccccc1CN1C(=O)c2ccccc2[C@@H](C(=O)NCC(F)(F)F)[C@@H]1c1ccc(CO)cc1 = 0.245
• COCCCNC(=O)[C@@]1(Sc2ccc(C)cc2)CC(=O)N(Cc2ccccc2)[C@@H]1c1ccc(CO)cc1I = 1.31

Exercise: Read off the recorded composite z-score for CC(C)(C)N1C(=O)[C@H]2[C@H]3[C@H](O)[C@H](O)CC(=NO[C@@H]4O[C@H](CO)[C@@H](O)[C@H](O)[C@H]4O)[C@@H]3CC[C@H]2C1=O
Key: -0.854

* * *

system: Human papillomavirus type 1a protein E7 (residues 44-93); experiment: HPV1a E7 fragment binders on microarrays, primary screen, biochemical, small-molecule microarray, residues 44-93, 635 nm fluorescence (AID 1108); conditions: small-molecule microarray binding, fluorescence 635 nm; higher = more signal;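 further: E7 fragment applied at 1 µg/mL in TBST for 1 h at 4 C; score combines spot fluorescence with its signal to noise ratio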
Rule: composite z-score under 0.4 gives 0.0, otherwise 1.0.

Here's what some known entries look like.
- O=C1C[C@@H](O)[C@@H](O)[C@@H]2[C@@H]3C(=O)N(C4CCCCC4)C(=O)[C@@H]3CC[C@H]12: 1.0
- COC(=O)C1=C(C)N(Cc2ccccc2)[C@]23O[C@](C(=O)OC)(C(=O)N2[C@@H]1c1ccccc1)[C@H]1CCOC(=O)[C@H]13: 0.0

Exercise: // inclusive: composite z-score at least 0.4? input: O=C1[C@H]2[C@H]3[C@H](O)[C@H](O)CC(=NO[C@@H]4O[C@H](CO)[C@@H](O)[C@H](O)[C@H]4O)[C@H]3CC[C@H]2C(=O)N1Cc1ccccc1
Key: 0.0

Exercise: // inclusive: composite z-score at least 0.4? input: CO[C@@H]1COC(=O)CC=C[C@@H](C)[C@@H]2C=C[C@H](O)[C@@H](COC(=O)[C@H](C)NC(=O)CC=C[C@H]1C)O2
Key: 0.0

Exercise: // inclusive: composite z-score at least 0.4? input: COC(=O)[C@@H]1CC[C@H](C)[C@@H](c2ccc(C)cc2)N1C(=O)c1ccc(C=NOC[C@@H](O)COCc2ccco2)cc1
Key: 0.0

* * *

assay: small-molecule microarray binders of probe aLefty2, primary screen, biochemical, biotinylated probe, 635/667 nm fluorescence (AID 1094); settings: higher = more signal;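 further: score merges spot fluorescence near 667 nm with spot signal-to-noise ratio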
Reported composite z-score values for the following molecules.
Answer with a number only.

The cases that follow already have their composite z-score on record.
- O=C1[C@H]2[C@H]3[C@H](O)[C@H](O)CC(=NOCc4ccccc4)[C@H]3CC[C@H]2C(=O)N1C[C@@H]1CCCO1: -0.238
- COCCCNC(=O)[C@]1(CCC(=O)OC(C)(C)C)N=C(c2ccc(OCCCO)cc2)O[C@@H]1c1ccccc1N=[N+]=[N-]: 0.0979
- COCCOC(=O)N1C(=O)[C@@]2(c3ccccc31)[C@H](C(N)=O)[C@H]1C(=O)O[C@H](c3ccccc3)[C@H](c3ccccc3)N1[C@@H]2c1ccccc1OCCO: 0.16
- N#Cc1ccc(NN2C(C(O)c3cccc4ccccc34)C=CC3C(=O)N(c4ccccc4)C(=O)C32)cc1 (stereo not given): 0.341
- O=C(NN=C1C[C@@H](O)[C@@H](O)[C@@H]2[C@@H]3C(=O)N(c4cccc(Oc5ccccc5)c4)C(=O)[C@@H]3CC[C@H]12)OCc1ccccc1: -0.0812

Exercise: Read off the recorded composite z-score for O=C1C2=CC[C@H]3C(=O)N(Cc4ccc5c(c4)OCO5)C(=O)[C@H]3[C@H]2[C@H](O)[C@@H]2O[C@H]12
Key: -0.166

Exercise: Read off the recorded composite z-score for C=C(/C(=C/C[C@H](OC(C)=O)c1ccc(OCCO)cc1)c1cnc2ccccc2c1)C(C)C
Key: -0.062

Exercise: Read off the recorded composite z-score for Cc1ccc(C2CC=C(C(=O)O)CN2S(=O)(=O)c2ccc(C)cc2)cc1 (stereo not given)
Key: 0.0527

Exercise: Read off the recorded composite z-score for CC(=O)OC[C@H]1O[C@H](CCON=C(C)CCN2CCc3nc(-c4ccccc4)c(-c4ccccc4)cc3C2)C=C[C@@H]1OC(C)=O
Key: -0.0258

Exercise: Read off the recorded composite z-score for C#C[C@@H]1Oc2ccccc2S(=O)(=O)N2CCC[C@H]12
Key: 0.0886

Exercise: Read off the recorded composite z-score for CCCNC(=O)[C@@H]1c2ccccc2C(=O)N(c2ccc(C)cn2)[C@H]1c1ccc(CO)cc1
Key: -0.0769

Exercise: Read off the recorded composite z-score for O=C(CS)NCCCCCNC(=O)[C@@H]1C[C@@H]2C(=O)N[C@@H](Cc3ccccc3)C(=O)N2[C@@H]1c1ccc(O)cc1
Key: -0.0687

Exercise: Read off the recorded composite z-score for CCN1C(=O)[C@H]2[C@H]3[C@H](O)[C@H](O)CC(=NOCC=C(C)CCC=C(C)C)[C@H]3CC[C@H]2C1=O
Key: -0.0355
